Data origin: the supplement of paper PMC9942255

# Tested on: Bacillus subtilis DB104 (SP-AmyQ fusion secretion)
# assay details: AmyQ secretion efficiency, weighted average sort bin (1 = best secretion, 10 = worst) (bin number (weighted average, 1-10)); higher = lower secretion efficiency
measurement label: AmyQ secretion efficiency

> print(dat)
                       ordered.residues          measurement.label  reading
 1      MRNLTKTSLLLAGLCTAAQMVFVTHSSAEES  AmyQ secretion efficiency     4.02
 2     MKKAFLVFLSVVLVTTVFLRKKRRKVAQAKQL  AmyQ secretion efficiency     6.27
 3       MKNMSCKLVVSVTLFFSFLGIFVLAHAQNS  AmyQ secretion efficiency     4.32
 4      MPYLKRVLLLLVTGLFMSLFAVTATASIQTG  AmyQ secretion efficiency     1.67
 5           MKRLLSTLLIGIMLLTFAPSAFCKQD  AmyQ secretion efficiency      2.6
 6     MKRSISIFITCLLITLLTMGGMIASPASTAGT  AmyQ secretion efficiency     4.46
 7       MRKKLKWLSTGTGGTYTQFLFKYQFSNNDS  AmyQ secretion efficiency     7.11
 8        MLKKKWMVGLLAGCLAAGGFSYNAFDTEN  AmyQ secretion efficiency     6.19
 9      MTMLRKIIGWILLLCIIPLFAFTVIQSGKEV  AmyQ secretion efficiency     6.03
10      MRPVFPLILSAVLFLSCFFGATQTEASASKR  AmyQ secretion efficiency     2.13
11  MKKRKRRNFKRFIAAFLVLALMISLVPADMLAKST  AmyQ secretion efficiency     1.76
12       MKKRLIAPMLLSAASLAFFAMSGSGQAAAY  AmyQ secretion efficiency     5.16
13        MKKSQYFIVFICFFVLFSVHPIAVAAADS  AmyQ secretion efficiency     3.83
14         MKKIMSAFVGMVLLTIFCFSPQASAEED  AmyQ secretion efficiency     2.74
15     MKKKSTVFLSVVLVTTVFLVKQQESVAQAKQL  AmyQ secretion efficiency     2.06
16    MKRFSTAYLLLGILCSAAVFLIGAPSRTLGAEV  AmyQ secretion efficiency     3.24
17      MKRLLVSLRVWMVFLMNWVTVGRKTAAAAVY  AmyQ secretion efficiency     5.77
18       MKKAAAVLLSLGLVFGFSYGAGHVAECKTK  AmyQ secretion efficiency     4.74
19       MKLSVKIAGVLTVAAAAMDDEDDEATAKGN  AmyQ secretion efficiency     7.46
20        MKLSVKIAGVLTVAAAAMVAIMGATAKGN  AmyQ secretion efficiency     8.27
21     MGTLTTLTSLLLAGLCTAAQMVFVTHASAEES  AmyQ secretion efficiency     3.24
22       MKNMSCKLVVSVTLFFSFLTIGPLAHAQNR  AmyQ secretion efficiency     1.47
23         MKKQIITATTAVVLGSTLFAGATSAQSI  AmyQ secretion efficiency     1.92
24        MLTKRLLTIYIMLLGLIAWFPGALQAEEK  AmyQ secretion efficiency     2.66
25   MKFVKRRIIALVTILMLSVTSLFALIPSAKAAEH  AmyQ secretion efficiency     2.54
26          MRSYIKVLTMCFLGLILFVPTTLADNS  AmyQ secretion efficiency     1.67
27    MPYRKRRRVLLLLVTGLFMSLFAVTATASAQTG  AmyQ secretion efficiency     1.13
28           MKRFILVLSFLSIIVAYPIQVNASPM  AmyQ secretion efficiency     3.06

====

# Test system: Bacillus subtilis DB104 (SP-AmyQ fusion secretion)
# assay details: AmyQ secretion efficiency, weighted average sort bin (1 = best secretion, 10 = worst) (bin number (weighted average, 1-10)); higher = lower secretion efficiency
Use condition met when the recorded AmyQ secretion efficiency is no lower than 3; use condition not met when it is lower.

> print(dat)
                        ordered.residues              class
 1          MKTKTLFIFSAILTLSIFAPNETFAQEE  condition not met
 2          MKKTIMSFVAVAALSTTAFGAHVSAKEI  condition not met
 3         MKLKSKLLLSCLALSTVFVATTIANNPTH      condition met
 4        MKKAFILSAAAAVGLFTFEEDEDEASAKEL      condition met
 5       MRNLTKTSLLLAGLCTAAQMVFVTHMSAEES      condition met
 6      MLTKRLLTIYIMLLGLIAWFPGATVPAQAEEK  condition not met
 7         MKKWMAGLFLAAAVLLCLMVPQQLQGASS      condition met
 8    MRNLTKMMNTSLLLAGLCTAAQMVFVTHASAEES  condition not met
 9        MGLGKKLSVAVAASFMSLSISLPGKQAAEG      condition met
10          MKKQIITATTAVVLGSTLFAGAASAQSD  condition not met
11      MKSKGSIMSCLILFSFTITTFINTETISAFSN      condition met
12        MKKWMITIAMLILAGIALFVFISPFKSHKT      condition met
13                 MKVLLSALLLLLFAEASGKKL      condition met
14            MKRLLSTLLIGIMLLEDEPSAFAKQD  condition not met
15             MKLAKRVSALTPSTTLAITCKAKEL      condition met
16        MKKWIYVVLVLSIAGIGGKRKKKKVHAASS      condition met
17       MRPVFPYTLSAVLFLSCFFGARQTEASASKR  condition not met
18           MKSLPYTIALLFCGLIIVSMAAKGKKR      condition met
19      MKRRRSIFITCLLITLLTMGGMIASPASAAGT  condition not met
20          MKKGIIRFLLVSFVLFSTGITGVQAAPA  condition not met
21              MKVLLSALLLLLFAFEPSASGAPR      condition met
22     MLKFLKSNFRFLLAAALGISLLASSNFIKASND      condition met
23        MKKAKKKKLSLGLVFGFSYGAGHVAEAKTK      condition met
24        MGLGKKLSVAVAASFMSLSISLFVVQAAEG      condition met
25         MKVLLSALLLLLFALVALSFEPSASGKKL      condition met
26         MKKKLAAGLTASAIVGTTLVVTPAERATI      condition met
27  MKRIRIPMTLALGAALTIAPLSFTGFGPAGASAEEN      condition met
28            MKRLLSTLLIGIMLLPKAPSAFAKQD  condition not met
29         MFKKHTISLLIIFLLASAVLAKPIERHTV      condition met
30        MKKWTIIAVSLAIAIVLFMYTKGEAKAAGM  condition not met
31      MKLWMRKTLVVLFTIVTFGLVSPPAATMADKP  condition not met
32      MKKQIITATTAVVLGSTLFARKKRKKASAQSI      condition met
33   MNFKKTITTSSSVVSALSISALALSVSGVASAHEI      condition met
34        MRKKLKWLSFLLGFIILLFLFKYQFSQNDS      condition met
35         MKKVMLATALFLGLTFTTFAPAGANAADL  condition not met
36       MNRLFMKASLVLFAVVFVFAVKGAPAKAETH  condition not met
37      MKRTWNVCLTALLSVLLVAGSVVPFHAEAKKP  condition not met
38       MTMLRKIIGWILLLCIIPLFAFTVIDSGKEV      condition met
39       MSFKRVITCVMAASLTLGSLLPAGYASAKED  condition not met
40         MKMKSGMEQAVSVLLLLSRLPVQASLTSD      condition met
41            MIIWIYVVLVLSIAGIGGFSVHAASS      condition met
42       MKRLFMKASLVLFAVVFVFAVKGAIAKAETH  condition not met
43              MLCVMMLLFSAIASFPVSAQTKDQ      condition met
44       MRPVFPLILSAVLFLSCFFGARQTEWSASKR      condition met
45          MKLAKRINMVSALTPSTTLAITAKAKEL      condition met
46          MAIIIAIIAAVIVIAALITFNVRNFSPG      condition met
47        MKNMSCKLVVSVTLFFSFLTIGPLAHVQNS      condition met
48          MNSCSQLIVCSLAAILLLIPSVSFAADS      condition met
49          MKKTIMSFVAVAALSTTAFFAIASAKEI      condition met
50    MTMLRKNMSIIGWILLLCIIPLFAFTVIASGKEV      condition met
51        MNKKYFVLIVCIIFTSALFPTFSSVTCAQG  condition not met
